System: TGF-b induced Endothelin-1 production
Assay: ET-1 assay: inhibitory effect on TGF-b induced endothelin-1 production
Type: cell-based
Details: Homo sapiens, Fibroblast; fibroblasts, stimulant (TGFb, serum, LPA etc), ET-1 in media by ELISA, 4-parameter fit
measurement-type: EC50

1) O=c1ccc(C(F)(F)F)cn1-c1ccc(NCCN2CCN(CCO)CC2)cc1Cl    50 to 200 µM
2) CC(C)Oc1ccc(-n2cc(Br)ccc2=O)cc1    > 200 µM
3) O=c1cc(Cl)c(-c2ccc(F)cc2)cn1-c1ccc(OC(F)(F)F)cc1    < 50 µM
4) Cc1cc(=O)n(-c2ccc(Cl)cc2)cc1-c1ccnnc1    > 200 µM
5) CCOc1ccc(-n2cc(-c3ccc(F)cc3)c(C)cc2=O)c(C)c1    50 to 200 µM

Could you tell me which EC50 is on file for `Cc1cc(=O)n(-c2ccc(OC(F)(F)F)cc2)cc1-c1ccc2c(c1)OCC(=O)N2CCO` ?
> 200 µM

Would you mind telling me what EC50 value was observed for `CC(C)n1nnc2c(-c3cnn(C)c3)cn(-c3ccc(OC(F)(F)F)cc3)c(=O)c21` ?
< 50 µM

Give the measured EC50 of `Cc1ccc(=S)n(-c2ccc(OC(C)C)cc2)c1` .
> 200 µM

Give the measured EC50 of `CC(C)OC(=O)Nc1cc(=O)n(-c2ccc(OC(F)(F)F)cc2)cc1-c1cnn(C)c1` .
> 200 µM

Value lookup for EC50; key = `CCOC(=O)Nc1cccc(-n2cc(-c3ccc(F)cc3)c(C)cc2=O)c1`
< 50 µM

I would be grateful if you could share the reported EC50 for `Cn1cc(-c2cn(-c3ccc(OC(F)(F)F)cc3)c(=O)cc2OCCN2CCS(=O)(=O)CC2)cn1` .
> 200 µM

Item under review: `CCn1nc2c(-c3cn[nH]c3)cn(-c3ccc(OC(F)(F)F)cc3)c(=O)c2n1` . Reported EC50?
< 50 µM

EC50 lookup needed for `Cc1cc(=O)n(-c2ccc(OC(F)(F)F)cc2)cc1-c1ccc(F)c(F)c1` , thanks.
50 to 200 µM
